These entries and their values trace back to ChEMBL document CHEMBL1137837.

Quick reference: logD of the listed items.
method-summary: Partition coefficient (logD)
Type: physicochemical
setup-conditions: octanol/water; read-out: logD
readout-label: logD

>  <chem-smiles>
O=CNc1cc([C@@H](O)CNCCc2ccc(OCCc3ccccc3)cc2)ccc1O

>  <readout-label>
logD

>  <measured-value>
1.67

$$$$
>  <chem-smiles>
O=CNc1cc([C@@H](O)CNCCc2cccc(OCCCCc3ccccc3)c2)ccc1O

>  <readout-label>
logD

>  <measured-value>
2.83

$$$$
>  <chem-smiles>
O=CNc1cc([C@@H](O)CNCCc2ccc(OCCCCc3ccccc3)cc2)ccc1O

>  <readout-label>
logD

>  <measured-value>
2.83

$$$$
>  <chem-smiles>
O=CNc1cc([C@@H](O)CNCCc2ccc(OC3Cc4ccccc4C3)cc2)ccc1O

>  <readout-label>
logD

>  <measured-value>
2.95

$$$$
>  <chem-smiles>
O=CNc1cc([C@@H](O)CNCCc2ccc(OCCCc3ccccc3)cc2)ccc1O

>  <readout-label>
logD

>  <measured-value>
2.35

$$$$
>  <chem-smiles>
O=CNc1cc([C@@H](O)CNCCc2cccc(OCCCOc3ccccc3)c2)ccc1O

>  <readout-label>
logD

>  <measured-value>
2

$$$$
>  <chem-smiles>
O=CNc1cc([C@@H](O)CNCCc2ccc(Oc3ccccc3)cc2)ccc1O

>  <readout-label>
logD

>  <measured-value>
1.95

$$$$

* * *

pKi: −log10 of the molar value.
System: UniProtKB P07550 | Read-out: pKi
Sequence (P07550 whole entry): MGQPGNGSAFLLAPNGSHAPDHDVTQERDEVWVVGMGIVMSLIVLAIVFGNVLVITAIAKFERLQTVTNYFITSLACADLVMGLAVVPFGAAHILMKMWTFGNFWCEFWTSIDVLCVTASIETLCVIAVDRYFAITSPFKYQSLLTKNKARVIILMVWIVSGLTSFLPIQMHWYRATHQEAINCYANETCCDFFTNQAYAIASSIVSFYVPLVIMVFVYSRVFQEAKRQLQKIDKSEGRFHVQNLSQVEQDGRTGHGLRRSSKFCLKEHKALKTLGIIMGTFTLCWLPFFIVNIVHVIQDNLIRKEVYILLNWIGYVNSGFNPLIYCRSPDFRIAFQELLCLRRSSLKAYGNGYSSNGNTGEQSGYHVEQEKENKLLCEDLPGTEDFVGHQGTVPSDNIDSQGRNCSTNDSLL
readout-label: pKi

>  <chem-smiles>
O=CNc1cc([C@@H](O)CNCCc2cccc(OCCCCc3ccccc3)c2)ccc1O

>  <measured-value>
8.07

$$$$
>  <chem-smiles>
O=CNc1cc([C@@H](O)CNCCc2ccc(OCCCc3ccccc3)cc2)ccc1O

>  <measured-value>
8.23

$$$$
>  <chem-smiles>
O=CNc1cc([C@@H](O)CNCCc2cccc(OCCCOc3ccccc3)c2)ccc1O

>  <measured-value>
8.48

$$$$
>  <chem-smiles>
O=CNc1cc([C@@H](O)CNCCc2ccc(Oc3ccccc3)cc2)ccc1O

>  <measured-value>
7.45

$$$$
>  <chem-smiles>
O=CNc1cc([C@@H](O)CNCCc2ccc(OCCc3ccccc3)cc2)ccc1O

>  <measured-value>
8.11

$$$$
>  <chem-smiles>
O=CNc1cc([C@@H](O)CNCCc2ccc(OC3Cc4ccccc4C3)cc2)ccc1O

>  <measured-value>
7.94

$$$$
>  <chem-smiles>
O=CNc1cc([C@@H](O)CNCCc2ccc(OCCCCc3ccccc3)cc2)ccc1O

>  <measured-value>
8.04

$$$$

* * *

method-summary: Partition coefficient (logD)
Type: physicochemical
setup-conditions: octanol/water
Quick reference: logD of the listed items.

>  <compound>
O=CNc1cc([C@@H](O)CNCCc2cccc(OCCCOc3ccccc3)c2)ccc1O

>  <logD>
2.49

$$$$
>  <compound>
OCc1cc(C(O)CNCCCCCCOCCCCc2ccccc2)ccc1O (stereo not drawn)

>  <logD>
1.24

$$$$
>  <compound>
O=CNc1cc([C@@H](O)CNCCc2ccc(OCCCCc3ccccc3)cc2)ccc1O

>  <logD>
2.76

$$$$
